Test system: IL-1β
Assay: Inhibition of LPS-stimulated cytokine secretion in human PBMC (IL-1β)
Format: cell-based
Settings: LPS 1 μg/ml, 24 h
pIC50: −log10 of the molar value.
reported.metric: pIC50

P: CS(=O)(=O)c1ccc(CCSc2nc(-c3ccncc3)c(-c3ccc(F)cc3)[nH]2)cc1
Q: CSc1ccc(CCSc2nc(-c3ccncc3)c(-c3ccc(F)cc3)[nH]2)cc1
Query block: Between these two entries, P and Q , state which has the higher pIC50. Mark your answer with the label of the selected entry.
Result block: P
